# EXPERIMENTAL_PROTOCOL: Growth inhibition of human A375P cells after 24 hrs by MTT assay
# Type: functional

- STRUCTURE_SMILES_STRING: "COc1ccc(Cn2ncc3c2NC(=O)CC(c2cccc(NC(=O)Nc4cccc(Cl)c4)c2)=N3)cc1"
  GI50: "910 nM"
- STRUCTURE_SMILES_STRING: "COc1ccc(Cn2ncc3c2NC(=O)CC(c2cccc(NC(=O)Nc4cc(N5CCOCC5)cc(C(F)(F)F)c4)c2)=N3)cc1"
  GI50: "3320 nM"
- STRUCTURE_SMILES_STRING: "COc1ccc(Cn2ncc3c2NC(=O)CC(c2cccc(NC(=O)Nc4ccc(Cl)cc4)c2)=N3)cc1"
  GI50: "640 nM"
- STRUCTURE_SMILES_STRING: "COc1ccc(Cn2ncc3c2NC(=O)CC(c2cccc(NC(=O)Nc4ccc(C(F)(F)F)cc4)c2)=N3)cc1"
  GI50: "770 nM"

Taken from ChEMBL document CHEMBL1914457.
